Biological target: T1, recombinant human IL-13 receptor alpha 2 (hIL-13-Rα2) (human, UniProt Q14627 27-343)
T1 construct: Recombinant soluble antigen coated on ELISA plates or used in Biacore; also called rec hIL-13Rα2; rhIL-13Rα2
T1 sequence (looked up): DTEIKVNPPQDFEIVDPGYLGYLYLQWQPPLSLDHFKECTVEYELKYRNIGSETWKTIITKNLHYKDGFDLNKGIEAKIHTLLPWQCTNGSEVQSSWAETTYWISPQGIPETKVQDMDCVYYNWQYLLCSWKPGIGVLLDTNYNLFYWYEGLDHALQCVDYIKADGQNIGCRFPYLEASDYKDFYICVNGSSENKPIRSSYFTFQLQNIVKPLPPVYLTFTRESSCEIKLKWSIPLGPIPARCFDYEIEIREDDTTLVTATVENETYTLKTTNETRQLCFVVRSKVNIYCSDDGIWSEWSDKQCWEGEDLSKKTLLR
Test: direct ELISA on coated recombinant hIL-13-Rα2
pEC50: −log10 of the molar value.

>  <Binder>
humanized antibody hu08 v1.1 HC/v1.1 LC (antibody, IgG1, V domains shown, hIgG1 constant region and hIgKappa constant region; also called hu08 v1.1/1.1; hu08v1.1/1.1) VH: EVQLVESGGGLVQPGGSLRLSCAASGFTFSRNGMSWVRQTPDKRLEWVATVSSGGSYIYYADSVKGRFTISRDNAKNSLYLQMSSLRAEDTAVYYCARQGTTALATRFFDVWGQGTLVTVSS VL: DIQMTQSPSSLSASVGDRVTITCKASQDVGTAVAWYQQIPGKAPKLLIYSASYRSTGVPDRFSGSGSGTDFSFIISSLQPEDFATYYCQHHYSAPWTFGGGTKVEIK

>  <pEC50>
9.70

$$$$
>  <Binder>
humanized antibody hu08 v1.0 HC/v1.1 LC (antibody, IgG1, V domains shown, hIgG1 constant region and hIgKappa constant region; also called hu08 v1.0/1.1) VH: EVQLVESGGGLVQPGGSLRLSCAASGFTFSRNGMSWVRQAPGKGLEWVATVSSGGSYIYYADSVKGRFTISRDNAKNSLYLQMNSLRAEDTAVYYCARQGTTALATRFFDVWGQGTLVTVSS VL: DIQMTQSPSSLSASVGDRVTITCKASQDVGTAVAWYQQIPGKAPKLLIYSASYRSTGVPDRFSGSGSGTDFSFIISSLQPEDFATYYCQHHYSAPWTFGGGTKVEIK

>  <pEC50>
9.84

$$$$
>  <Binder>
chimeric antibody ch08 (antibody, human IgG1, V domains shown, also called ch08Hc + Lc; chimeric antibody 08) VH: EVQLVESGGDLVRPGGSLQLSCAASGFTFSRNGMSWVRQTPDRRLEWVATVSSGGSYIYYADSVKGRFTISRDNARNTLYLQMSSLKSEDTAMYYCARQGTTALATRFFDVWGAGTTVTVSS VL: DIVMTQSHKFISTSVGDRVSITCKASQDVGTAVAWYQQIPGQSPKLLIYSASYRSTGIPDRFTGSGSGTDFSFIISSVQAEDLALYYCQHHYSAPWTFGGGTTLDIK

>  <pEC50>
9.82

$$$$
>  <Binder>
humanized antibody hu08 v1.1 HC/v1.0 LC (antibody, IgG1, V domains shown, hIgG1 constant region and hIgKappa constant region; also called hu08 v1.1/1.0) VH: EVQLVESGGGLVQPGGSLRLSCAASGFTFSRNGMSWVRQTPDKRLEWVATVSSGGSYIYYADSVKGRFTISRDNAKNSLYLQMSSLRAEDTAVYYCARQGTTALATRFFDVWGQGTLVTVSS VL: DIQMTQSPSSLSASVGDRVTITCKASQDVGTAVAWYQQKPGKAPKLLIYSASYRSTGVPSRFSGSGSGTDFTLTISSLQPEDFATYYCQHHYSAPWTFGGGTKVEIK

>  <pEC50>
9.79

$$$$
